target: CDK7/cyclinH/MAT1 trimeric complex (Homo sapiens); test: In vitro CDK7 assay, potency of irreversible covalent inhibitors (kinact/KI), coupled PK/LDH ADP readout at 340 nm; settings: read-out: CDK7 (20 nM enz.) (kinact, s^−1), 20 nM enzyme
Sequence (P50613 whole entry): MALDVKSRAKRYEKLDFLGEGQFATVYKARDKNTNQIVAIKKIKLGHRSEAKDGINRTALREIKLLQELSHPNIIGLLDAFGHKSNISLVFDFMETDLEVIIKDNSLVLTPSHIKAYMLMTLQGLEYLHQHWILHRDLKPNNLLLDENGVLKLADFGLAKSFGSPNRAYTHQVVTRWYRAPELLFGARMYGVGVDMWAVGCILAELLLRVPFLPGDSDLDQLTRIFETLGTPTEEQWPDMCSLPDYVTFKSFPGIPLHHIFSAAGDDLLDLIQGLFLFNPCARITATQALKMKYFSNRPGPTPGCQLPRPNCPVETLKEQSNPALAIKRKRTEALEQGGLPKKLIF
Sequence (P51946 whole entry partner): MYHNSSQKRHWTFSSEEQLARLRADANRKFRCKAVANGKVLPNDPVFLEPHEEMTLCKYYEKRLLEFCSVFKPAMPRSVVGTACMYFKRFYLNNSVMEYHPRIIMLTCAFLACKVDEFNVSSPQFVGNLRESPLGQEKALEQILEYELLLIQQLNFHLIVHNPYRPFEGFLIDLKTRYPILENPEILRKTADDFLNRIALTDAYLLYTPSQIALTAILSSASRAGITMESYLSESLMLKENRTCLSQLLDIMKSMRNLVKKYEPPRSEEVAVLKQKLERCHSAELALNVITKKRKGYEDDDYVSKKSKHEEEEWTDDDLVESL
Sequence (P51948 whole entry partner): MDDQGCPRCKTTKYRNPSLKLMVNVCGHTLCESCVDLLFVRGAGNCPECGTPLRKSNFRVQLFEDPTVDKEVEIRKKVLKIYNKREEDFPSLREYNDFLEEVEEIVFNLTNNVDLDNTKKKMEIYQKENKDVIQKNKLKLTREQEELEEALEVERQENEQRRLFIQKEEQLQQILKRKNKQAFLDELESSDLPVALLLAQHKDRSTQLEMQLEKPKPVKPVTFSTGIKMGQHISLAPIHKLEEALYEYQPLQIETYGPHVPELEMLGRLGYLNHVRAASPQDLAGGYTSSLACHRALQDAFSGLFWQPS
measured-quantity: kinact (s⁻¹)

Reference set (4 entries):
C=CC(=O)N1CC[C@@H](N2CC(c3cc(C)c4c(c3)Nc3nccc(N5CCOCC5)c3CO4)C2)[C@@H](F)C1 (mixture of isomers): 3.55e-05
C=CC(=O)N1CC(N2CCC(c3ccc4c(c3)Nc3ncc(F)c(N5CCOCC5)c3CO4)CC2)C1: 4.67e-05
C=CC(=O)N1CCC(N2CC(c3cc4c(c(C#N)n3)OCc3c(N5CCOCC5)ccnc3N4)C2)CC1: 7.49e-06
C=CC(=O)N1CC(N2CCO[C@@H](c3cc(C)c4c(c3)Nc3nccc(C5CCOCC5)c3CO4)CC2)C1 (single isomer, unassigned): 7.79e-05

1 = C=CC(=O)N1CC[C@@H](N2CC(c3cc4c(c(C)n3)O[C@H](C)c3c(N5CCOCC5)ccnc3N4)C2)C1 (single isomer, unassigned)
2 = CC#CC(=O)N1CCC(N2CC(c3cc4c(c(C#N)n3)OCc3c(-c5cnn(C)c5)ccnc3N4)C2)C1 (stereo not shown)
Exercise: Pick the one with the larger kinact: 1 vs 2 Which one? Tell me its label.
Solution: 1
(1: 0.000104 s⁻¹, 2: 1.66e-05 s⁻¹)
